Test: LNP size and polydispersity index (PDI) by dynamic light scattering (DLS)
Assay type: physicochemical
Conditions: Table 1; LNP lipid:DSPC:Cholesterol:DMG-PEG2k 50:10:38.5:1.5 mol %; hEPO mRNA; N:P 6
Measurement Kind: Size (nm)

- CCCCCCCCC(CCCCCC)C(=O)OCCN(CCOC(=O)C(CCCCCC)CCCCCCCC)C(=O)C(N)Cc1c[nH]cn1 (stereo not shown): 93.8
- CCCCCCCCC(CCCCCC)C(=O)OCCN(CCOC(=O)C(CCCCCC)CCCCCCCC)C(=O)C(N)CCCCN (stereo not shown): 83.3
- CCCCCCCC/C=C\CCCCCCCC(=O)OCCN(CCOC(=O)CCCCCCC/C=C\CCCCCCCC)C(=O)C(C)N (stereo not shown): 100.4
- CCCCCCCCCC(=O)OCCN(CCOC(=O)CCCCCCCCC)C(=O)C(N)CO (stereo not shown): 111.3

###

Assay: LNP Zeta potential measured using a Zetasizer (Malvern)
Assay type: physicochemical
Conditions: Table 9; LNP 50:10:38.5:1.5 mol %; hEPO mRNA; N:P 6
Measurement Kind: Zeta potential (mV)

* CCCCCCCCC(CCCCCC)C(=O)OCCN(CCOC(=O)C(CCCCCC)CCCCCCCC)C(=O)CNC.Cl (stereo not shown) | −26.13
* CCCCCCCCCC(CCCCCCCCC)C(=O)OCCN(CCOC(=O)C(CCCCCCCCC)CCCCCCCCC)C(=O)CN(C)C.Cl | −41.21
* CCCCCCCCC(CCCCCC)C(=O)OCCN(CCOC(=O)C(CCCCCC)CCCCCCCC)C(=O)CN1CCCCC1.Cl (stereo not shown) [Compound 960d] | −32.3
* CCCCCCCCC(CCCCCC)C(=O)OCCN(CCOC(=O)C(CCCCCC)CCCCCCCC)C(=O)CN(C)CCC.Cl (stereo not shown) | −28.83

P: CCCCCCCCC(CCCCCC)C(=O)OCCN(CCOC(=O)C(CCCCCC)CCCCCCCC)C(=O)CNCC.Cl (stereo not shown)
Q: CCCCCCCCC(CCCCCC)C(=O)OCCN(CCOC(=O)C(CCCCCC)CCCCCCCC)C(=O)CN(CC)CCC.Cl (single isomer, unassigned) [Compound 960b]
Which item exceeds the other in Zeta potential, P or Q ? Reply briefly: the label of your chosen item.
P

###

Assay: Encapsulation efficiency (EE %) by fluorescence based Ribogreen assay
Assay type: physicochemical
Details: Table 8; LNP 50:10:38.5:1.5 mol %; hEPO mRNA; N:P 6
Measurement Kind: Encapsulation Efficiency % (%)

* CCCCCCCC(CCCCCCC)C(=O)OCCN(CCOC(=O)C(CCCCCCC)CCCCCCC)C(=O)CCCN(C)C | 99.9
* CCCCCCCCC(CCCCCC)C(=O)OCCN(CCOC(=O)C(CCCCCC)CCCCCCCC)C(=O)CCCN(CC)CCC.Cl (centres unmarked) | 94.9
* CCCCCCCCC(CCCCCC)C(=O)OCCN(CCOC(=O)C(CCCCCC)CCCCCCCC)C(=O)CCCN(C)CCC.Cl (centres unmarked) [Compound 939] | 98.5
* CCCCCCCCC(CCCCCC)C(=O)OCCN(CCOC(=O)C(CCCCCC)CCCCCCCC)C(=O)CC(C)NCCC.Cl (centres unmarked) | 99.7
* CCCCCCCCC(CCCCCC)C(=O)OCCN(CCOC(=O)C(CCCCCC)CCCCCCCC)C(=O)C(C)CNC.Cl (centres unmarked) | 99.9
